pIC50 values for RON (Homo sapiens), compiled from several publications.
pIC50: −log10 of the molar value.

Solved entries:
RON (Homo sapiens) data for Cc1nn(-c2ccccc2)c(C)c1C(=O)Nc1ccc(Oc2ccnc3[nH]c(=O)n(C(C)C)c23)c(F)c1 ; its pIC50: > 7.30

Lab note: compound O=C(Nc1ccc(Oc2ccnc(Cl)c2)c(F)c1)c1ncn(-c2ccccc2)c1C(F)(F)F tested on RON (Homo sapiens); recorded pIC50 was < 5.30

Observed pIC50 on RON (Homo sapiens), entry CC(C)n1c(=O)[nH]c2nccc(Oc3ccc(NC(=O)c4cnn(-c5cccnn5)c4C(F)(F)F)cc3F)c21 , equals > 7.30

// below: pIC50 requested for another compound
Kindly note: RON (Homo sapiens), Nc1nccc(Oc2ccc(NC(=O)c3cnn(-c4ccccc4)c3C(F)(F)F)cc2F)c1Cl , pIC50 value reported: > 7.30

* * *

For reference, the following IC50 results for RON (Homo sapiens) were taken from various sources.

Entry Nc1nccc(Oc2ccc(NC(=O)c3cnn(C4CCCOC4)c3C(F)(F)F)cc2F)c1Cl (stereo not drawn) ; assay system RON (Homo sapiens); IC50 recorded at 50 to 500 nM

Record for CC(C)n1c(=O)[nH]c2nccc(Oc3ccc(NC(=O)c4cnn(C5CCCOC5)c4C(F)(F)F)cc3F)c21 (stereo not drawn) under target or system RON (Homo sapiens): IC50 reported as < 50 nM

Reported IC50 (RON (Homo sapiens)) for entry CC(C)n1c(=O)[nH]c2nccc(Oc3ccc(NC(=O)c4cnn(-c5cncnc5)c4C(F)(F)F)cc3F)c21 is < 50 nM

Here CCOc1ccn(-c2ccc(F)cc2)c(=O)c1C(=O)Nc1ccc(-c2ccc3c(N)n[nH]c3c2)c(F)c1 was tested on RON (Homo sapiens), and its IC50 came to 467 nM

Further cases:
Nc1nccc(Oc2ccc(NC(=O)c3cnn(-c4ccccc4)c3C(F)F)cc2F)c1Cl on RON (Homo sapiens) gives IC50 = 50 to 500 nM

Here Cc1nc(-c2ccccc2)sc1C(=O)Nc1ccc(Oc2ncnc(N)c2Cl)c(F)c1 was tested on RON (Homo sapiens), and its IC50 came to 500 to 5000 nM

Readout IC50 for Cc1nn(-c2ccccc2)c(C)c1C(=O)Nc1ccc(Oc2ccnc(N)c2Cl)c(F)c1 , test system RON (Homo sapiens), was 50 to 500 nM

Short answer on RON (Homo sapiens) for CCc1c(C(=O)Nc2ccc(Oc3ccnc(N)c3Cl)c(F)c2)cnn1-c1cccnc1 , IC50: 50 to 500 nM

IC50 of CC(C)n1c(=O)[nH]c2nccc(Oc3ccc(NC(=O)c4cnn(C(C)(C)C)c4C(F)(F)F)cc3F)c21 , assay on RON (Homo sapiens), is 50 to 500 nM

Given the molecule Cc1ccc(C(=O)Nc2ccc(Oc3ncnc(N)c3Cl)c(F)c2)c(=O)n1-c1ccc(F)cc1 and test system RON (Homo sapiens), the measured IC50 is 7 nM

Observed IC50, RON (Homo sapiens), Cc1cccnc1-n1ncc(C(=O)Nc2ccc(Oc3ccnc4[nH]c(=O)n(C(C)C)c34)c(F)c2)c1C(F)(F)F : < 50 nM

Simply: Nc1nccc(Oc2c(F)cc(NC(=O)c3cnn(-c4ncccn4)c3C(F)(F)F)cc2F)c1C1CCOCC1 , RON (Homo sapiens), IC50 = < 50 nM

For Cc1csc(-n2ncc(C(=O)Nc3ccc(Oc4ccnc(N)c4Cl)c(F)c3)c2C(F)(F)F)n1 on RON (Homo sapiens), measured IC50 was 50 to 500 nM

Considering O=C(Nc1ccc(Oc2ccnc3[nH]c(=O)n(C4CCCC4)c23)c(F)c1)c1cnn(-c2ccccc2)c1C(F)(F)F , its IC50 with RON (Homo sapiens) was recorded as < 50 nM

Item C#Cc1c(Oc2c(F)cc(NC(=O)c3cnn(-c4ccccc4)c3C(F)(F)F)cc2F)ccnc1N ; assay system RON (Homo sapiens); IC50 reported as < 50 nM

* * *

Record set: IC50 | RON (Homo sapiens) | literature, multiple sources.

Data point: Cc1ccc(C(=O)Nc2ccc(NC(=O)c3cc(-c4cnn(C)c4)cnc3N)c(F)c2)c(=O)n1-c1ccc(F)cc1 ; IC50 = 7.88 µM

# compound Nc1ncnc(Oc2ccc(NC(=O)c3nc(-c4ccccc4)cs3)cc2F)c1Cl ; its IC50 = > 5 µM

Lookup result for CN1CCCC(n2ncc(C(=O)Nc3ccc(Oc4ncnc(N)c4Cl)c(F)c3)c2C(F)(F)F)C1 (stereo not shown) ; measured IC50: 0.5 to 5 µM

Sure, the documented IC50 for Cn1c(=O)[nH]c2nccc(Oc3ccc(NC(=O)c4cnn(-c5ccccc5)c4C(F)(F)F)cc3F)c21 is < 0.05 µM

Documented IC50 of CC(C)n1c(=O)[nH]c2nccc(Oc3ccc(NC(=O)c4ncc(-c5ccccc5)s4)cc3F)c21 : 0.05 to 0.5 µM

New cases:
The reported IC50 of the compound CC(C)n1c(=O)[nH]c2nccc(Oc3ccc(NC(=O)c4cnn(-c5ccc(C(F)(F)F)cn5)c4C(F)(F)F)cc3F)c21 was > 5 µM

Record CC(C)(C)n1ncc(C(=O)Nc2ccc(Oc3ncnc(N)c3Cl)c(F)c2)c1C(F)(F)F . Reported IC50: 0.5 to 5 µM

* * *

pIC50: −log10 of the molar value.
Reported pIC50 against RON (Homo sapiens, UniProt Q04912), gathered from multiple publications, appears below.

In plain terms, CC(C)n1c(=O)[nH]c2nccc(Oc3ccc(NC(=O)c4cnn(C5CCCN(C)C5)c4C(F)(F)F)cc3F)c21 (stereo not drawn) has a documented pIC50 of 6.30 to 7.30

New cases:
The measured pIC50 associated with Nc1nccc(Oc2ccc(NC(=O)c3ccc(-c4ccccc4)s3)cc2F)c1Cl reads 6.30 to 7.30

So, Cc1c(C(=O)Nc2ccc(Oc3ccnc(N)c3Cl)c(F)c2)nnn1-c1ccccc1 ? Its pIC50 was 6.30 to 7.30

Per the records, this compound ( CC(C)n1c(=O)[nH]c2nccc(Oc3ccc(NC(=O)c4ccc(Br)cc4C(F)(F)F)cc3F)c21 ) has pIC50 equal to 6.30 to 7.30

The recorded pIC50 for entry C=CC(=O)N(C(=O)C=C)c1nccc(Oc2ccc(NC(=O)c3ncn(-c4ccccc4)c3C(F)(F)F)cc2F)c1Cl equals 6.30 to 7.30

For CC(C)n1c(=O)[nH]c2nccc(Oc3ccc(NC(=O)c4cnn(-c5cc(Br)ccn5)c4C(F)(F)F)cc3F)c21 the compound record lists pIC50 as > 7.30

Lab book: pIC50 of CC(C)n1c(=O)[nH]c2nccc(Oc3ccc(NC(=O)c4cnn(-c5cc(C6=CCOCC6)ccn5)c4C(F)(F)F)cc3F)c21 noted as 6.30 to 7.30

pIC50 for Nc1nccc(Oc2c(F)cc(NC(=O)c3cnn(-c4ccccn4)c3C(F)(F)F)cc2F)c1C1CCOCC1 is > 7.30

response.value for Cc1c(C(=O)Nc2ccc(Oc3ccnc(N)c3Cl)c(F)c2)cnn1-c1cncnc1 (field: pIC50) = 6.30 to 7.30

For Cc1ccc(-n2ncc(C(=O)Nc3ccc(Oc4ncnc(N)c4Cl)c(F)c3)c2C(F)(F)F)cc1 the compound record lists pIC50 as < 5.30

Briefly, pIC50 measured for Nc1nccc(Oc2c(F)cc(NC(=O)c3cnn(-c4ncccn4)c3C(F)(F)F)cc2F)c1CN1CCOCC1 : > 7.30

GET /value?item= CC(C)n1c(=O)[nH]c2nccc(Oc3ccc(NC(=O)c4cnn(-c5ncccc5C(F)(F)F)c4C(F)(F)F)cc3F)c21 &field=pIC50 returns > 7.30

* * *

This section presents IC50 values reported for RON (Homo sapiens, UniProt Q04912) in the literature.

molecule CCc1c(C(=O)Nc2ccc(Oc3ccnc4[nH]c(=O)[nH]c34)c(F)c2)cnn1-c1ccccc1 , IC50 observed: 50 to 500 nM

response.value for CCOc1ccn(-c2ccc(F)cc2)c(=O)c1C(=O)Nc1ccc(Oc2ccc(O)c(-c3ccnc(N)n3)c2)c(F)c1 (field: IC50) = 86 nM

Next:
Entry Nc1nccc(Oc2ccc(NC(=O)c3cnn(-c4ccc(F)nn4)c3C(F)(F)F)cc2F)c1Cl ; IC50 = 500 to 5000 nM

// recorded IC50 for Cc1cccc(-n2ncc(C(=O)Nc3ccc(Oc4ccnc(N)c4Cl)c(F)c3)c2C(F)(F)F)n1 : 50 to 500 nM

The molecule identified as Nc1nccc(Oc2ccc(NC(=O)c3ncc(-c4ccccc4)s3)cc2F)c1Cl registered its IC50 at 500 to 5000 nM

* * *

# merged literature set: IC50 with RON (Homo sapiens)

IC50 for CC(C)n1c(=O)[nH]c2nccc(Oc3ccc(NC(=O)Cc4cnn(-c5ccccc5)c4C(F)(F)F)cc3F)c21 is 0.05 to 0.5 µM

Just so you know, measured IC50 for Nc1nccc(Oc2ccc(NC(=O)c3cnn(-c4ccccc4Cl)c3C(F)(F)F)cc2F)c1Cl came out at 0.05 to 0.5 µM

Entry CCOCC(=O)N1CCC(n2ncc(C(=O)Nc3cc(F)c(Oc4ccnc(N)c4Cl)c(F)c3)c2C(F)(F)F)CC1 — recorded IC50 = 0.5 to 5 µM

Consider Nc1nccc(Oc2ccc(NC(=O)c3cnn(-c4ccccc4)c3Cl)cc2F)c1Cl . Its measured IC50 is 0.05 to 0.5 µM

# next compound below
Measured IC50 of Nc1ncnc(Oc2ccc(NC(=O)c3cnn(-c4ncccc4F)c3C(F)(F)F)cc2F)c1Cl : < 0.05 µM
